Assay: Binding affinity to SARS-CoV-2 MPro C145A mutant assessed as dissociation constant by isothermal titration calorimetry assay
Set-up: species or system Severe acute respiratory syndrome coronavirus 2
PROPERTY_LABEL: Kd (nM)
API: value field is a number in nM; no unit string.

Q: Tell me its Kd given `Cl.O=C1C=C(Nc2ccccc2N2CCNCC2)C2=NS(=O)(=O)c3cccc1c32` as the entry.
Result: 1500

* * *

Experiment: Binding affinity to SARS-CoV-2 PLpro C111A mutant assessed as dissociation constant by isothermal titration calorimetry assay
Design: species or system Severe acute respiratory syndrome coronavirus 2
PROPERTY_LABEL: Kd (nM)
API: value field is a number in nM; no unit string.

Q: Tell me its Kd given `Cl.O=C1C=C(Nc2ccccc2N2CCNCC2)C2=NS(=O)(=O)c3cccc1c32` as the entry.
Result: 2300
